In this section, each of the compounds is paired with its reported percentage of inhibition.
test system: lipid peroxidation (MDA formation) in rat liver microsomes; experiment: MDA formation triggered enzymatically by NADPH and carbon tetrachloride in liver microsomes of phenobarbital-pretreated rats (antioxidant activity); assay type: biochemical; conditions: 1 × 10^-6 M, NADPH/CCl4
# answer = number (no unit)

Would you please look over these solved cases?
compound | measurementLabel | recordedNumber
CN(C)c1ccc([C@H]2C[C@@]3(C)[C@@H](CC[C@@]3(O)C#CCN3CCN(c4cc(N5CCCC5)nc(N5CCCC5)n4)CC3)[C@@H]3CCC4=CC(=O)CCC4=C32)cc1 [Example 2] | percentage of inhibition | 28
CN(C)c1ccc([C@H]2C[C@@]3(C)[C@@H](CC[C@@]3(O)C#CCN3CCN(c4cc(N5CCCC5)nc(N5CCCC5)n4)CC3)[C@@H]3CCC4=CC(=O)CCC4=C32)cc1 [Example 1] | percentage of inhibition | 14
CCN(CC)c1ccc(N(CC)CC)c(N2CCN(CC#C[C@]3(O)CC[C@H]4[C@@H]5CCC6=CC(=O)CCC6=C5[C@@H](c5ccc(N(C)C)cc5)C[C@@]43C)CC2)n1 | percentage of inhibition | 48

Would you kindly look at the next entry?
Requested field: percentage of inhibition. Item: CCN(CC)c1ccc(N2CCN(CC#C[C@]3(O)CC[C@H]4[C@@H]5CCC6=CC(=O)CCC6=C5[C@@H](c5ccc(N(C)C)cc5)C[C@@]43C)CC2)nc1N(CC)CC
40
